I'd be grateful if you could share measured pIC50 for these entries.
tested on: 454973-116-R2-J3-PDC spheroids, viability, % test/control; experiment: Anticancer human tumor 454973-116-R2-J3-PDC patient-derived pancreatic carcinoma cell line growth inhibition [GQUAD]; details: curve of first compound; second compound 0.0316 µM; spheroids with HUVEC and MSC;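 further: spheroids exposed to compounds for seven days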
pIC50: −log10 of the molar value.

So what does the record say about pIC50 for COc1cccc2c1C(=O)c1c(O)c3c(c(O)c1C2=O)CC(O)(C(=O)CO)CC3OC1CC(N)C(O)C(C)O1 (stereo unspecified) + Cc1[nH]c2ccc(F)cc2c1-c1nc2c3cccnc3c3ncccc3c2[nH]1 ?
6.78

Quick one: pIC50 for Cn1ncnc1[C@H]1c2n[nH]c(=O)c3cc(F)cc(c23)N[C@@H]1c1ccc(F)cc1 + Cc1[nH]c2ccc(F)cc2c1-c1nc2c3cccnc3c3ncccc3c2[nH]1 ?
< 6.50

Which pIC50 reading was recorded for the compound Nc1ccn(C2OC(CO)C(O)C2(F)F)c(=O)n1 (stereo unspecified) + CN(C)c1ccc(Nc2c3ccc(NC(=O)CCN4CCCC4)cc3nc3cc(NC(=O)CCN4CCCC4)ccc23)cc1 ?
> 7.50

What measured pIC50 goes with CC(C)n1c(=O)n(C)c2cnc3cc(F)c(-c4ccc(OCCCN5CCCCC5)nc4)cc3c21 + Cc1cnc(CNC(=O)c2c(=O)c3ccc(N4CCCN(C)CC4)nc3n3c2sc2ccccc23)cn1 ?
< 5.00

Name the recorded pIC50 for C=CCn1c(=O)c2cnc(Nc3ccc(N4CCN(C)CC4)cc3)nc2n1-c1cccc(C(C)(C)O)n1 + CN(C)c1ccc(Nc2c3ccc(NC(=O)CCN4CCCC4)cc3nc3cc(NC(=O)CCN4CCCC4)ccc23)cc1 .
6.36

Which pIC50 reading was recorded for the compound COc1cccc2c1C(=O)c1c(O)c3c(c(O)c1C2=O)CC(O)(C(=O)CO)CC3OC1CC(N)C(O)C(C)O1 (stereo unspecified) + Cc1cnc(CNC(=O)c2c(=O)c3ccc(N4CCCN(C)CC4)nc3n3c2sc2ccccc23)cn1 ?
6.78

Look at this compound and give its reported pIC50. O=C(c1cc(Cc2n[nH]c(=O)c3ccccc23)ccc1F)N1CCN(C(=O)C2CC2)CC1 + Cc1[nH]c2ccc(F)cc2c1-c1nc2c3cccnc3c3ncccc3c2[nH]1
< 5.00

Fill in: pIC50 of Cc1cccc(N(C)C(=O)C2C(O)CCN2c2nc(C)cc(C(F)(F)F)c2C#N)c1 (stereo unspecified) + Cc1[nH]c2ccc(F)cc2c1-c1nc2c3cccnc3c3ncccc3c2[nH]1 is ___
< 5.00

Suppose we examine the compound Cn1ncnc1[C@H]1c2n[nH]c(=O)c3cc(F)cc(c23)N[C@@H]1c1ccc(F)cc1 + CN(C)c1ccc(Nc2c3ccc(NC(=O)CCN4CCCC4)cc3nc3cc(NC(=O)CCN4CCCC4)ccc23)cc1 ; what pIC50 value has been reported?
< 6.50

What does the record list as pIC50 for COc1cccc2c1C(=O)c1c(O)c3c(c(O)c1C2=O)CC(O)(C(=O)CO)CC3OC1CC(N)C(O)C(C)O1 (stereo unspecified) + CN(C)c1ccc(Nc2c3ccc(NC(=O)CCN4CCCC4)cc3nc3cc(NC(=O)CCN4CCCC4)ccc23)cc1 ?
6.63

Which pIC50 value belongs to Cn1ncnc1[C@H]1c2n[nH]c(=O)c3cc(F)cc(c23)N[C@@H]1c1ccc(F)cc1 + Cc1cnc(CNC(=O)c2c(=O)c3ccc(N4CCCN(C)CC4)nc3n3c2sc2ccccc23)cn1 ?
< 6.50
